target: CD63 on cells (human) (UniProt P08962); experiment: cell-based or functional assay
Sequence (P08962 2-238): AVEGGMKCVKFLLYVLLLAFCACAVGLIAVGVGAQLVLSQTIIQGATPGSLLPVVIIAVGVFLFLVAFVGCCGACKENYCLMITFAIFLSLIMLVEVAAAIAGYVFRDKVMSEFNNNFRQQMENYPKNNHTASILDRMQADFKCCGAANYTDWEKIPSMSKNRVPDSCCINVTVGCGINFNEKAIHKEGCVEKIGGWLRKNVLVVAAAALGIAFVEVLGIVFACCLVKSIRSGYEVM
Examples of binders with documented IC50 of cytotoxicity, HCC1954 cells (CellTiter-GLO, 4 days) follow.
Please give a number only; it is taken to be in µg/mL.

Field: example entries. Status: answers known.
| binder | unit_info | reported_measurement |
| --- | --- | --- |
| bsHER2xCD63-Duo3 with CD63 variant LQ47 (bispecific antibody, part only; not given: HER2 arm, V domains shown, part only) VH: EVQLQQSGPELVKPGASVKMSCKASGYTFTSYVMHWVRQTPGQGLEWIGYITPYNDGTKYNEKFKGKATLTSDKSSSTAYMELSSLTSEDSAVYYCVGGDNYYYAMDYWGQGTSVTVSAA VL: NIMVTQSPSSLAVSAGEKVTMSCKSSHSVLYSSNQKNYLAWYQQKPGQSPKLLIYWASTRVSGVPDRFTGSGSGTDFTLTISRVQAEDLAVYYCHQYFSSFTFGSGTKLEIKRT | µg/mL | 0.017 |
| bsCD63xb12-Duo3 with CD63 variant LY51H (bispecific antibody, part only; not given: b12 control arm VH and VL, V domains shown, part only) VH: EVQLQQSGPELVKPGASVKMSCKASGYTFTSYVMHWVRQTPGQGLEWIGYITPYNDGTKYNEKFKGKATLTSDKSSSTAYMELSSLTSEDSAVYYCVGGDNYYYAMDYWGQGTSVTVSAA VL: NIMVTQSPSSLAVSAGEKVTMSCKSSQSVLHSSNQKNYLAWYQQKPGQSPKLLIYWASTRVSGVPDRFTGSGSGTDFTLTISRVQAEDLAVYYCHQYFSSFTFGSGTKLEIKRT | µg/mL | 5.27 |
| bsCD63xb12-Duo3 with CD63 variant G76H (bispecific antibody, part only; not given: b12 control arm VH and VL, V domains shown, part only) VH: EVQLQQSGPELVKPGASVKMSCKASGYTFTSYVMHWVRQTPGQGLEWIGYITPYNDHTKYNEKFKGKATLTSDKSSSTAYMELSSLTSEDSAVYYCVGGDNYYYAMDYWGQGTSVTVSAA VL: NIMVTQSPSSLAVSAGEKVTMSCKSSQSVLYSSNQKNYLAWYQQKPGQSPKLLIYWASTRVSGVPDRFTGSGSGTDFTLTISRVQAEDLAVYYCHQYFSSFTFGSGTKLEIKRT | µg/mL | 10 |
| bsCD63xb12-Duo3 with CD63 variant LQ47 (bispecific antibody, part only; not given: b12 control arm, V domains shown, part only) VH: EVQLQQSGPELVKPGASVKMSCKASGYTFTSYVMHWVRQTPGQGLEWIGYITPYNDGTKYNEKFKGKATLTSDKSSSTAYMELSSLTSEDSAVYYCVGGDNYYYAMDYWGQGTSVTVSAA VL: NIMVTQSPSSLAVSAGEKVTMSCKSSHSVLYSSNQKNYLAWYQQKPGQSPKLLIYWASTRVSGVPDRFTGSGSGTDFTLTISRVQAEDLAVYYCHQYFSSFTFGSGTKLEIKRT | µg/mL | 0.753 |
| bsHER2xCD63-Duo3 with CD63 variant LY51H (bispecific antibody, part only; not given: HER2 arm (IgG1-153) VH and VL, V domains shown, part only) VH: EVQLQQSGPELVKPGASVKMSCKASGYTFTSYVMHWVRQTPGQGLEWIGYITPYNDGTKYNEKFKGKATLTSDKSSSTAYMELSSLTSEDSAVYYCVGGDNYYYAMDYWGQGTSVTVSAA VL: NIMVTQSPSSLAVSAGEKVTMSCKSSQSVLHSSNQKNYLAWYQQKPGQSPKLLIYWASTRVSGVPDRFTGSGSGTDFTLTISRVQAEDLAVYYCHQYFSSFTFGSGTKLEIKRT | µg/mL | 0.069 |

Incoming: Please supply the value of reported IC50 of cytotoxicity, HCC1954 cells (CellTiter-GLO, 4 days) for the item bsHER2xCD63-Duo3 with CD63 variant LS52 (bispecific antibody, part only; not given: HER2 arm (IgG1-153) VH and VL, V domains shown, part only) VH: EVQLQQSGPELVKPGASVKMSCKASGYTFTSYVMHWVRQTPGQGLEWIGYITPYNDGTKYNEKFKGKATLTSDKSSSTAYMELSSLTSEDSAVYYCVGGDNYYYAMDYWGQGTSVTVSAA VL: NIMVTQSPSSLAVSAGEKVTMSCKSSQSVLYHSNQKNYLAWYQQKPGQSPKLLIYWASTRVSGVPDRFTGSGSGTDFTLTISRVQAEDLAVYYCHQYFSSFTFGSGTKLEIKRT
Outgoing: 0.018

Incoming: Please supply the value of reported IC50 of cytotoxicity, HCC1954 cells (CellTiter-GLO, 4 days) for the item bsHER2xCD63-Duo3 with CD63 variant Y79H (bispecific antibody, part only; not given: HER2 arm (IgG1-153) VH and VL, V domains shown, part only) VH: EVQLQQSGPELVKPGASVKMSCKASGYTFTSYVMHWVRQTPGQGLEWIGYITPYNDGTKHNEKFKGKATLTSDKSSSTAYMELSSLTSEDSAVYYCVGGDNYYYAMDYWGQGTSVTVSAA VL: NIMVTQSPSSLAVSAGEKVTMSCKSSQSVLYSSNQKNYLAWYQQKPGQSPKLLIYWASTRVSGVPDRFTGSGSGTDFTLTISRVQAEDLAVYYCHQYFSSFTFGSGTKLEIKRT
Outgoing: 0.008

Incoming: Please supply the value of reported IC50 of cytotoxicity, HCC1954 cells (CellTiter-GLO, 4 days) for the item bsCD63xb12-Duo3 with CD63 variant P72H (bispecific antibody, part only; not given: b12 control arm, V domains shown, part only) VH: EVQLQQSGPELVKPGASVKMSCKASGYTFTSYVMHWVRQTPGQGLEWIGYITHYNDGTKYNEKFKGKATLTSDKSSSTAYMELSSLTSEDSAVYYCVGGDNYYYAMDYWGQGTSVTVSAA VL: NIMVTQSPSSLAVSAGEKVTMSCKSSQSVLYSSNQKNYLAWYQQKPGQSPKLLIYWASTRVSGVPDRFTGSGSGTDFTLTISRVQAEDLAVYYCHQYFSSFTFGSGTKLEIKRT
Outgoing: 0.92

Incoming: Please supply the value of reported IC50 of cytotoxicity, HCC1954 cells (CellTiter-GLO, 4 days) for the item bsCD63N74Hxb12-Duo3 (bispecific antibody, part only; not given: b12 control arm, V domains shown, part only) VH: EVQLQQSGPELVKPGASVKMSCKASGYTFTSYVMHWVRQTPGQGLEWIGYITPYHDGTKYNEKFKGKATLTSDKSSSTAYMELSSLTSEDSAVYYCVGGDNYYYAMDYWGQGTSVTVSAA VL: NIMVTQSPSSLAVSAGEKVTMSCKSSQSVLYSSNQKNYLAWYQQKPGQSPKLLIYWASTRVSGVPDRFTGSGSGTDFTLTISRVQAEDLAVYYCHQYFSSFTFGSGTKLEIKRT
Outgoing: 1.35

Incoming: Please supply the value of reported IC50 of cytotoxicity, HCC1954 cells (CellTiter-GLO, 4 days) for the item bsCD63xb12-Duo3 with CD63 variant Y121H (bispecific antibody, part only; not given: b12 control arm VH and VL, V domains shown, part only) VH: EVQLQQSGPELVKPGASVKMSCKASGYTFTSYVMHWVRQTPGQGLEWIGYITPYNDGTKYNEKFKGKATLTSDKSSSTAYMELSSLTSEDSAVYYCVGGDNHYYAMDYWGQGTSVTVSAA VL: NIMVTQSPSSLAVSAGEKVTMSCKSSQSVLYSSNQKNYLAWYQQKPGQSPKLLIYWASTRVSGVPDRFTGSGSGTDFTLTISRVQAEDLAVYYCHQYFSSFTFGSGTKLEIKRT
Outgoing: 10

Incoming: Please supply the value of reported IC50 of cytotoxicity, HCC1954 cells (CellTiter-GLO, 4 days) for the item bsHER2xCD63-Duo3 with CD63 variant P72H (bispecific antibody, part only; not given: HER2 arm (IgG1-153) VH and VL, V domains shown, part only) VH: EVQLQQSGPELVKPGASVKMSCKASGYTFTSYVMHWVRQTPGQGLEWIGYITHYNDGTKYNEKFKGKATLTSDKSSSTAYMELSSLTSEDSAVYYCVGGDNYYYAMDYWGQGTSVTVSAA VL: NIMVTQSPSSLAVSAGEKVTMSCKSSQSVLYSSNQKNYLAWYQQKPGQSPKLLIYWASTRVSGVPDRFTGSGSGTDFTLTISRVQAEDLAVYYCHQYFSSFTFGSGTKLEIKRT
Outgoing: 0.014
